Test system: cGMP PDE purified from human colon HT-29 cultured tumor cells
Test: cGMP PDE inhibition assay
Type: biochemical
Conditions: read-out: IC50 for inhibition of cGMP PDE; cGMP PDE from HT-29 cells
measure: IC50 (µM)

{"compound": "CSc1ccc(/C=C2/C(C)=C(CC(=O)O)c3cc(F)ccc32)cc1 [Sulindac sulfide]", "system-under-test": "cGMP PDE purified from human colon HT-29 cultured tumor cells", "recorded-result": 17}

====

System: A-427, Lung
Assay: Growth inhibition, SRB assay, A-427
Format: cell-based
Conditions: Homo sapiens
Method: A compound's ability to inhibit tumor cell growth can be measured using the HT-29 human colon carcinoma cell line obtained from ATCC. […] To show the effectiveness of this screening method on various forms of neoplasia, compounds were tested on numerous cell lines. […] The IC50 values were determined by the SRB assay. […]

{"compound": "CSc1ccc(/C=C2/C(C)=C(CC(=O)O)c3cc(F)ccc32)cc1 [Sulindac sulfide]", "system-under-test": "A-427, Lung", "u": "µM", "IC50": 90}
